Cited source for all entries: the OPERA property sets (Mansouri et al. 2018)

Query Smiles | melting point / °C
O=C(O)C(F)(F)C(F)(F)C(F)(F)F | -17.5
Cc1cccc(N)c1N | 63.5
NCCc1c[nH]c2ccc(O)cc12 | 168
C1CCNC1 | -57.8
O=C=Nc1ccc(Cc2ccc(N=C=O)cc2)cc1 | 38
COP(=S)(OC)Oc1ccc([N+](=O)[O-])cc1Cl | 52.5
OC1CCCCCCC1 | 25.1
CCCCCCOc1ccccc1 | -19
O=C(Nc1ccccc1)N(Cc1ccc(Cl)cc1)C1CCCC1 | 130
Cc1ccc(S(=O)(=O)F)cc1 | 41.5
N#Cc1ccc2[nH]ccc2c1 | 107
O=[N+]([O-])c1ccc(F)c([N+](=O)[O-])c1 | 25.8
CCCCCOC(=O)COc1cc(N2C(=O)C3=C(CCCC3)C2=O)c(F)cc1Cl | 89
Nc1c(O)cccc1[N+](=O)[O-] | 216
CCN1C(=O)C=CC1=O | 45.5
